SUBJECT_OF_TEST: T1, TIGIT on TIGIT-over expressing NFAT-Luc/Jurkat effector cells (GenScript reporter cell line) (UniProt Q495A1 22-244, limits assumed)
T1 sequence (looked up): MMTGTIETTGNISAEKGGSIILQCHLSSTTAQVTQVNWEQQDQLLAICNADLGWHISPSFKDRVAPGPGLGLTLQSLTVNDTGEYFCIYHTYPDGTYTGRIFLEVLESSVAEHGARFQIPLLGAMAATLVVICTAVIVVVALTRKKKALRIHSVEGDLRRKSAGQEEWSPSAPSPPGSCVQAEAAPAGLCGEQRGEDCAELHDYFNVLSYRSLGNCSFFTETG
ASSAY_NAME: cell-based or functional assay
Recorded Top (RLU), one value per entry.
State the answer as a number, implicitly in RLU.

Record excerpt, results attached:
{"BINDER": "Hu1217-2-2 (anti-TIGIT positive control antibody) (antibody, V domains shown) VH: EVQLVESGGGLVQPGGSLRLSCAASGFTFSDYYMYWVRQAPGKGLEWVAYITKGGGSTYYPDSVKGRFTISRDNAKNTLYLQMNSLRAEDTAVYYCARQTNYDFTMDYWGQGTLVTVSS VL: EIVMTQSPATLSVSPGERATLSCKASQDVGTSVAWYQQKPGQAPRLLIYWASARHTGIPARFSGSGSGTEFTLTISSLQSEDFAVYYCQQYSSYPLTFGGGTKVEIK", "VALUE": 51700}
{"BINDER": "TIGIT-6 chimeric antibody (antibody, human IgG1, kappa, V domains shown, also called 6VH + 6VL) VH: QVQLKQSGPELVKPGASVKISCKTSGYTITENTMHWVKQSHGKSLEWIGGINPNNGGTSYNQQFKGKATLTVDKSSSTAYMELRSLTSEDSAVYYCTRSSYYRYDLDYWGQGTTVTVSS VL: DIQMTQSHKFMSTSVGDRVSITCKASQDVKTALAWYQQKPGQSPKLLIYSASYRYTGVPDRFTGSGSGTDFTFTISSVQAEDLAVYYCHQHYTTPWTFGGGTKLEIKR", "VALUE": 49800}
{"BINDER": "TIGIT-52 chimeric antibody (antibody, human IgG1, kappa, V domains shown, Full-length chimeric IgG1 kappa) VH: EVQLVESGGGLVEPGGSLTLSCVASGFTFSSFAMSWVRQTPEKRLEWVATISNGGSYTYYPDTVKGRFTISRDNAKNTLFLQMSSLRSEDTAMYYCARPYYGTTYGYYFDFWGQGTTLTVSS VL: QIVLTQSPASLAVSLGQRATISCRASESVDRNGNSFMHWYQQKPGQPPKLLIYLASNLESGVPARFSGSGSRTDFTLTIDPVEADDAATYYCQQNNEDPLTFGAGTKLELKR", "VALUE": 14200}

Consider the record given below.
Could you tell me which Top (RLU) is on file for TIGIT-100 chimeric antibody (antibody, human IgG1, kappa, V domains shown, Full-length chimeric IgG1 kappa) VH: QVQLQQPGPELVKPGASVKISCKASGYSFTDYNMNWVKQSNGKSLEWIGVINPNSGTDNYNQKFKGKATLTVDQSSSTAYMQLNSLTSEDSAVYFCARGVYFGNYFDSWGQGTTLTVSS VL: DIVMTQSPASLSASVGETVTITCRASENIYSSLAWYQQKQGKSPQLLVFNAKTLTEGVPSRFSGSGSGTQFSLKINSLQPEDFGSYYCQHHYGAPWTFGGGTKLEIKR ?
11700

Cited source: patent US20260139048A1
